# assay-method-text: Solubility in gastric juice or intestinal juice model fluid (precipitation method using DMSO)
# Type: physicochemical
# assay-setup: 2nd fluid for Disintegration Test of Japanese Pharmacopoeia (pH: 6.8), room temperature, 24 hours

{"columns": ["compound", "measurement-units", "limit-qualifier", "Solubility (μg/mL) 2nd fluid"],
 "data": [
  ["COc1cc(OC(C)c2ccc(C(F)(F)F)cn2)ccc1-c1[nH]c(-c2ccc(F)nc2)nc1Cl (stereo not shown) [Example 240]", "µg/mL", "<", 0.4],
  ["COc1cc(O[C@H](C)c2ccc(C(F)(F)F)nc2)ccc1-c1cnc(-c2ccc(F)nc2)[nH]1 [Example 149]", "µg/mL", "=", 3.9],
  ["COc1cc(-c2[nH]c(C3CCCC(F)(F)C3)nc2Br)ccc1OCc1ccc(C(F)(F)F)cn1 (stereo not shown) [Example 171]", "µg/mL", "<", 1.9],
  ["COc1cc(O[C@H](C)c2ccc(C(F)(F)F)nc2)ccc1-c1cnc(-c2ccc(F)nc2)[nH]1 [Example 146]", "µg/mL", "=", 1.2]
]}

----------
# assay-method-text: Solubility in gastric juice or intestinal juice model fluid (precipitation method using DMSO)
# Type: physicochemical
# assay-setup: pH 6.8, kinetic from dmso stock, 2nd fluid for Disintegration Test of Japanese Pharmacopoeia (pH: 6.8), room temperature, read-out: Solubility (μg/mL) 2nd fluid
readout-type: solubility at 24 h (µg/mL)

{"columns": ["compound", "numeric-result"],
 "data": [
  ["COc1cc(-c2c[nH]c(C3CCCCC3)n2)ccc1OCc1ccc(C(F)(F)F)cn1 [Example 81]", 5.8],
  ["COc1cc(OCc2ncc(C(F)(F)F)cc2F)ccc1-c1[nH]c(-c2ccc(F)nc2)nc1C [Example 331]", 8],
  ["COc1cc(OCc2ccncc2C(F)(F)F)ccc1-c1cnc(-c2ccc(F)nc2)[nH]1 [Example 136]", 2.2],
  ["COc1cc(-c2[nH]c(C3CC3)nc2Cl)ccc1OCc1ncc(C(F)(F)F)cc1F [Example 378]", 7.5]
]}

----------
As shown below, each of these compounds has a reported melting point value.
readout-type: melting point

{"columns": ["compound", "readout-type", "result"],
 "data": [
  ["COc1cc(OCc2ccnc(C(F)(F)F)c2)ccc1-c1cnc(-c2ccc(Cl)nc2)[nH]1", "melting point", "174 to 223 °C"],
  ["COc1ccc(-c2nc(-c3ccc(OCc4ccc(C(F)(F)F)cn4)cc3OC)c[nH]2)cn1", "melting point", "187 to 189 °C"],
  ["COc1cc(OCc2ccc(Br)cc2F)ccc1-c1[nH]c(-c2ccc(F)nc2)nc1Cl", "melting point", "183 to 185 °C"],
  ["COc1cc(OCc2ncc(C(F)(F)F)cc2F)ccc1-c1[nH]c(C2CCC(F)(F)CC2)nc1Br", "melting point", "190 to 191 °C"],
  ["COCCn1c(-c2ccc(F)nc2)nc(Cl)c1-c1ccc(OCc2ccc(C(F)(F)F)cn2)cc1OC", "melting point", "131 to 136 °C"],
  ["COc1cc(OCc2ccnc(C(F)(F)F)c2)ccc1-c1[nH]c(-c2ccc(F)nc2)nc1Cl", "melting point", "236 to 238 °C"],
  ["COc1cc(OCc2ccc(F)cc2F)ccc1-c1cnc(-c2ccc(F)nc2)[nH]1", "melting point", "168 to 173 °C"],
  ["COc1cc(OCc2ncc(C(F)(F)F)cc2F)ccc1-c1[nH]c(CCC(F)(F)F)nc1Cl", "melting point", "154 to 159 °C"],
  ["COc1cc(-c2c[nH]c(C34CC5CC(CC(C5)C3)C4)n2)ccc1OCc1ccc(C(F)(F)F)cn1", "melting point", "209 to 217 °C"],
  ["COc1cc(OCc2ncccc2C(F)(F)F)ccc1-c1c[nH]c(-c2ccc(F)nc2)n1", "melting point", "201 to 202 °C"],
  ["COc1cc(-c2cnc(-c3ccc(F)nc3)[nH]2)ccc1OCc1ccc(C(F)(F)F)nc1", "melting point", "144 to 146 °C"],
  ["COc1cc(OCc2ncc(C(F)(F)F)cc2F)ccc1-c1cnc(-c2ccc(F)nc2)[nH]1", "melting point", "> 230 °C"],
  ["COc1cc(OCc2cnc(C)cn2)ccc1-c1c[nH]c(-c2ccc(Cl)nc2)n1", "melting point", "199 to 201 °C"],
  ["COc1cc(OCc2ncc(C(F)(F)F)cc2F)ccc1-c1cnc(C2CCCC2)[nH]1", "melting point", "97 to 102 °C"],
  ["COc1cc(OCc2cnc(C)cn2)ccc1-c1c[nH]c(-c2ccc(F)nc2)n1", "melting point", "167 to 170 °C"],
  ["COc1cc(OCc2ccc(C(F)(F)F)cn2)ccc1-c1nc(-c2ccc(F)cn2)[nH]c1Cl", "melting point", "222 to 224 °C (dec.)"],
  ["COc1cc(OCc2cccnc2C(F)(F)F)ccc1-c1cnc(-c2ccc(Cl)nc2)[nH]1", "melting point", "231 to 233 °C"],
  ["COc1cc(OC(C)c2cccc(C(F)(F)F)n2)ccc1-c1[nH]c(-c2ccc(F)nc2)nc1Cl (stereo not shown)", "melting point", "170 to 175 °C"],
  ["CCOC(C)n1cc(-c2ccc(OCc3ccc(C(F)(F)F)nc3)cc2OC)nc1-c1ccc(F)nc1 (stereo not shown)", "melting point", "102 to 104 °C"],
  ["COc1cc(-c2[nH]c(C3C4CC5CC(C4)CC3C5)nc2Cl)ccc1OCc1ccc(C(F)(F)F)cn1 (stereo not shown)", "melting point", "238 to 240 °C (dec.)"],
  ["COc1cc(OCc2ccc(C(F)(F)F)[n+]([O-])c2)ccc1-c1[nH]c(-c2ccc(F)nc2)nc1Cl", "melting point", "> 250 °C"],
  ["COc1cc(OCc2ccc(C(F)(F)F)nc2)c(C)cc1-c1[nH]c(-c2ccc(F)nc2)nc1Cl", "melting point", "213 to 215 °C (dec.)"],
  ["COc1cc(OCc2ncc(C(F)(F)F)cc2F)ccc1-c1[nH]c(C(C)(C)C)nc1Cl", "melting point", "170 to 172 °C"],
  ["COc1cc(OCc2ncc(Br)cc2F)ccc1-c1cnc(-c2ccc(Cl)nc2)[nH]1", "melting point", "219 to 225 °C"],
  ["COc1cc(OCc2cccc(C#N)n2)ccc1-c1c[nH]c(-c2ccc(Cl)nc2)n1", "melting point", "235 to 239 °C (dec.)"],
  ["COc1cc(OCc2ccc(C(F)(F)F)cn2)ccc1-c1nc(-c2ccc(Cl)nc2)n(CC2CC2)c1Cl", "melting point", "123 to 126 °C"],
  ["COc1cc(OCc2ccc(C(F)(F)F)nc2)ccc1-c1cn(C)c(-c2ccc(F)nc2)n1", "melting point", "163 to 165 °C"],
  ["COc1cc(OCc2ccc(C(F)(F)F)nc2)ccc1-c1c(Cl)nc(-c2ccc(Cl)nc2)n1C", "melting point", "149 to 151 °C"],
  ["COc1cc(OCc2cnccc2C(F)(F)F)ccc1-c1[nH]c(-c2ccc(F)nc2)nc1Cl", "melting point", "133 to 153 °C"],
  ["COc1cc(OCc2ccc(C(F)(F)F)nc2)ccc1-c1nc(-c2ccc(F)cn2)[nH]c1C", "melting point", "140 to 142 °C"],
  ["COc1cc(-c2[nH]c(C3CCC(F)(F)CC3)nc2Cl)ccc1OCc1ccc(C(F)(F)F)cn1", "melting point", "175 to 177 °C"]
]}

----------
# assay-method-text: Solubility in gastric juice or intestinal juice model fluid (precipitation method using DMSO)
# Assay type: physicochemical
# assay-setup: pH 6.8, kinetic from dmso stock, 2nd fluid for Disintegration Test of Japanese Pharmacopoeia (pH: 6.8), room temperature, read-out: Solubility (μg/mL) 2nd fluid
Quick reference: solubility at 24 h of the listed items.
readout-type: solubility at 24 h (µg/mL)

{"columns": ["compound", "readout-type", "limit-qualifier", "numeric-result"],
 "data": [
  ["COc1cc(OCc2ccncc2C(F)(F)F)ccc1-c1[nH]c(-c2ccc(F)nc2)nc1Br", "solubility at 24 h", "=", 6.7],
  ["COc1cc(O)ccc1-c1c[nH]c(-c2ccc(F)nc2)n1", "solubility at 24 h", "=", 40],
  ["COc1cc(OCc2ccc(C(F)(F)F)nc2)ccc1-c1c(Cl)nc(-c2ccc(F)nc2)n1C", "solubility at 24 h", "<", 0.4],
  ["COc1cc(OC(C)c2ncc(C(F)(F)F)cc2F)ccc1-c1cnc(-c2ccc(F)nc2)[nH]1 (stereo not shown)", "solubility at 24 h", "<", 0.3]
]}

----------
// reported solubility at 24 h per item
# assay-method-text: Solubility in gastric juice or intestinal juice model fluid (precipitation method using DMSO)
# Format: physicochemical
# assay-setup: pH 6.8, kinetic from dmso stock, 2nd fluid for Disintegration Test of Japanese Pharmacopoeia (pH: 6.8), room temperature, read-out: Solubility (μg/mL) 2nd fluid

{"columns": ["molecule", "limit-qualifier", "solubility at 24 h / µg/mL"],
 "data": [
  ["COc1cc(-c2[nH]c(C3CCCC(F)(F)C3)nc2Br)ccc1OCc1ccc(C(F)(F)F)cn1 (centres unmarked)", "=", 1.3],
  ["COc1cc(OCc2ncc(Br)cc2F)ccc1-c1cnc(-c2ccc(Cl)nc2)[nH]1", "<", 0.3],
  ["COc1cc(OCc2cc(C(C)C)no2)ccc1-c1cnc(-c2ccc(F)nc2)[nH]1", "=", 1.3],
  ["COc1cc(-c2[nH]c(C3CCC(F)(F)CC3)nc2Cl)ccc1OCc1ccc(C(F)(F)F)nc1", "<", 1.8],
  ["COc1cc(OCc2ccc(C(F)(F)F)cn2)ccc1-c1c[nH]c(-c2ccccn2)n1", "=", 0.5],
  ["COc1cc(OCc2ccc(C(F)(F)F)cn2)ccc1-c1nc(-c2ccc(F)nc2)[nH]c1C", "=", 5.2],
  ["COc1cc(OCn2cccn2)ccc1-c1nc(-c2ccc(Cl)nc2)[nH]c1Cl", "=", 2.1],
  ["COc1cc(-c2c[nH]c(-c3ccc(Cl)nc3)n2)ccc1OCc1cccc(F)n1", "=", 0.3]
]}
